Biological target: T1, mouse Ang-2 (mouse, UniProt O35608)
T1 chain: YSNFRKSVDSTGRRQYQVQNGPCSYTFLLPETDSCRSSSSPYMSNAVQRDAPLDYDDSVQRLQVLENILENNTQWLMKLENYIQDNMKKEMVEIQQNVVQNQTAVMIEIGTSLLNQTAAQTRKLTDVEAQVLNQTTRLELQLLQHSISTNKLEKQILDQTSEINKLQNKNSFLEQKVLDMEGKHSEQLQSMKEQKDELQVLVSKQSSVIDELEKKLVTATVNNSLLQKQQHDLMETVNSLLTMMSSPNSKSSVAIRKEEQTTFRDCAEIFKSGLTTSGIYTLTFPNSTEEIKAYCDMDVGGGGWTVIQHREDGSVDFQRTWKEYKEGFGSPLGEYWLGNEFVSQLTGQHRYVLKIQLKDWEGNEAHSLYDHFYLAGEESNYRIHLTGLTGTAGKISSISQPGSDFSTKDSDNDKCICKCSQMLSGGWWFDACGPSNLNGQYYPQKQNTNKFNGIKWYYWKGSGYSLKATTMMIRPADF
Experiment: competition ELISA vs Tie-2
Where no end group is shown, it is not given here. [ ]: non-standard residue; d: D form. Fc = immunoglobulin Fc domain fused to the peptide (peptibody)
EXPERIMENTAL READOUT: IC50

GET /values?readout=IC50&item= M[Fc]GGGGGAQQEECEWDPWTCEHMLE (not fully specified (bridges); printed as M-Fc-GGGGGAQQEECEWDPWTCEHMLE; cysteine pairing not given here; also: Fc fusion domain at position 2) [Con4 (C)]
0.3 nM

What do we get for MGAQKRPCEEMWGGCNYDLEGGGGGX (not fully specified (C-terminus, bridges); printed as MGAQ-KRPCEEMWGGCNYDLEGGGGG-Fc; cysteine pairing not given here) [TN8-8 (N)] ?
~700 nM

The reported measurements were obtained from patent US7205275.
